Hello, the source for this data is patent US20230183239A1, in case you need it.

- target_system: ENPP1 (Homo sapiens)
- Sequence (P22413 whole entry): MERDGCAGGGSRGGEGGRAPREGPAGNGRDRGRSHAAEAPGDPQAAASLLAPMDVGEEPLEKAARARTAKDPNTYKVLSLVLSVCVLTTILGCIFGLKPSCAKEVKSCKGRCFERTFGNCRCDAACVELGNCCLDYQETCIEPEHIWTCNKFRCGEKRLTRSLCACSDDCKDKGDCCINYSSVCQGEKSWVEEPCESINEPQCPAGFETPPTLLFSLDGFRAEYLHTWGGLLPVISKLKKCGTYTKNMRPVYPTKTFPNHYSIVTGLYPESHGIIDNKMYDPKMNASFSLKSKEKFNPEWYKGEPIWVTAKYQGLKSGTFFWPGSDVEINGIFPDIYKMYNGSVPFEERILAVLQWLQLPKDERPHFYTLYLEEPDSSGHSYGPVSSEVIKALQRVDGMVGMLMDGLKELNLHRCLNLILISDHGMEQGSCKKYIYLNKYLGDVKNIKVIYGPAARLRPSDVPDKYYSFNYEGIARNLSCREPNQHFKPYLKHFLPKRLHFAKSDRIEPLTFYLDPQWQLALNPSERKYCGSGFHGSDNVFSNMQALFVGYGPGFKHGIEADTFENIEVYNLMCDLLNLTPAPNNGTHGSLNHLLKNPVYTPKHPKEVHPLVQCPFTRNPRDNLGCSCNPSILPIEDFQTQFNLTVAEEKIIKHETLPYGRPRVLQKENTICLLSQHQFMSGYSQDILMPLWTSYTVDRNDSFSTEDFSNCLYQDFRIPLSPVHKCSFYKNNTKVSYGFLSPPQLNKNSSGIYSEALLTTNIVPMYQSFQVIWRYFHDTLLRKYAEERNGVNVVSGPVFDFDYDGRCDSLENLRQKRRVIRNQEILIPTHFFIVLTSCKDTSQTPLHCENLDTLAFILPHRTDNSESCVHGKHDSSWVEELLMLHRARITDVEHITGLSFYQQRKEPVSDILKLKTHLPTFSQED
- assay_comment: Indirect quantitation of 2',3'-cGAMP hydrolysis (AMP-Glo Assay kit)
- Format: biochemical
- condition_summary: cGAMP substrate; Ki from IC50 by Cheng-Prusoff; read-out: ENPP1 Inhibition -cGAMP: Ki
pKi: −log10 of the molar value.
value_type: pKi

INSERT INTO results (compound, result) VALUES
  ('COc1cc2ncc(C#N)c(N3CCC(CCNS(N)(=O)=O)CC3)c2cc1OC [Example 20]', '> 7.00');

stdin: Give me measured pKi, please, for this compound: COc1cc2ncc(Oc3ccc(NS(N)(=O)=O)cc3)nc2cc1OC [Example 280]
stdout: < 6.00

stdin: Answer with reported pKi of COc1ccc2c(-c3ccc4c(c3)CN(S(N)(=O)=O)CC4)c(C#N)cnc2c1 [Example 249]
stdout: 6.00 to 7.00

stdin: Give the reported value of pKi for this record: COc1ccc2c(-c3ccc4c(c3)CNCC4)c(C#N)cnc2c1 [Example 276]
stdout: < 6.00

stdin: Could you please provide reported pKi for COc1ccc2c(N3CCc4cc(N(C)S(N)(=O)=O)ccc43)ccnc2c1 [Example 418] ? Thanks!
stdout: > 7.00

stdin: Check the records and state pKi for COc1cc2nc(N(C)C)nc(N3CCC(CCNS(N)(=O)=O)CC3)c2cc1OC [Example 3]
stdout: 6.00 to 7.00

stdin: Return pKi (reported value) for this compound: COc1cc2c(cc1OC)N(Cc1ccc(NS(N)(=O)=O)cc1)C(=O)CC2 [Example 173]
stdout: < 6.00

stdin: Entry COc1cc2ncnc(N3CCC(CCNS(N)(=O)=O)CC3)c2cc1OC(C)C [Example 205] needs its pKi filled in; supply it.
stdout: 6.00 to 7.00

stdin: Give reported pKi value for COc1ccc2c(Oc3cnc(NS(N)(=O)=O)nc3)ccnc2c1 [Example 224]
stdout: 6.00 to 7.00

====

- target_system: ENPP1 (Homo sapiens)
- assay_comment: Substrate selectivity ratio, inhibition of cGAMP hydrolysis versus ATP hydrolysis
- Assay type: biochemical
- condition_summary: ratio Ki AMP-pNP / Ki cGAMP
value_type: Substrate Selectivity: Ki_AMP-pNP/Ki_cGAMP
Keep it simple and answer with nothing but the number.

INSERT INTO measurements (molecule, measured_number) VALUES
  ('COc1ccc2c(-c3ccc(CNS(N)(=O)=O)cn3)ccnc2c1 [Example 387]', 36);

# input for lookup
stdin: Specify reported Substrate Selectivity: Ki_AMP-pNP/Ki_cGAMP for the molecule shown: COc1cc2nccc(-c3ccc(CNS(N)(=O)=O)cc3)c2cc1OC [Example 225]
stdout: 48.4

====

- target_system: ENPP1 (Homo sapiens)
- assay_comment: ENPP1 enzyme assay with AMP-pNP substrate (hydrolysis of ATP analog)
- Type: biochemical
- condition_summary: AMP-pNP substrate (ATP analog); Ki from IC50 by Cheng-Prusoff; read-out: ENPP1 Inhibition _AMP-pNP: Ki
value_type: Ki

INSERT INTO results (compound, value_type, result) VALUES
  ('COc1ccc2c(Oc3ccc(NS(N)(=O)=O)c(C)c3)ccnc2c1', 'Ki', '0.1 to 1 µM'),
  ('COc1ccc2ncnc(NC(C)c3ccc(NS(N)(=O)=O)cc3)c2c1 (stereo not drawn)', 'Ki', '> 1 µM'),
  ('COc1cc2ncnc(N3CCC4(CC3)CN(S(N)(=O)=O)C4)c2cc1OC', 'Ki', '> 1 µM');

Here's the next entry for you.
stdin: Respond only with Ki recorded for COc1cc2nccc(NCc3ccc(S(N)(=O)=O)cc3)c2cc1F
stdout: < 0.1 µM
